Target: DLK (Homo sapiens, UniProt Q12852)
Construct: 10 nM DLK, catalytic domain, Carna Biosiences; purchased Carna Biosciences ('Carna Biosiences' [sic])
Sequence (Q12852 125-366 limits assumed): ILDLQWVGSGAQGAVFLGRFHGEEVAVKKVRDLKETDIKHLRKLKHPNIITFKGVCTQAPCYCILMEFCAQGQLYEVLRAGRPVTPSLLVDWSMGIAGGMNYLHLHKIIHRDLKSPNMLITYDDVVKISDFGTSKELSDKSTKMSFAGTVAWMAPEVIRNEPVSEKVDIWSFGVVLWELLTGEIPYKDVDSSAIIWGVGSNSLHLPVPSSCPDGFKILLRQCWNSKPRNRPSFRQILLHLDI
Assay: DLK biochemical assay (TR-FRET, MKK7 phosphorylation)
Provide the recorded log10(IC50) for the entries that follow.
Heads up: the numbers are on a log10 scale; they represent IC50 in nM.

The following compounds have reported results that may help.
CCC(c1ccc(C(F)(F)F)nc1)n1cc(-c2cc(-c3ccn(C)c(=O)c3)c3nc(N)nn3c2)cn1 (single isomer, unassigned) [II-170] :: 1.86
CCC(c1ccc(C(F)(F)F)cc1)n1cc(-c2cc(-c3cnn(C4CCCC4)c3)n3nc(N)nc3c2)cn1 (single isomer, unassigned) [II-134] :: 1.51
CN(C)c1cccc(-c2cc(-c3cnn(C(c4ccc(C(F)(F)F)nc4)C4CCOCC4)c3)cn3nc(N)nc23)c1 (racemic) [II-22] :: 0.34
Nc1nc2cc(-c3cnn(Cc4ccccc4)c3)cc(-c3cnn(CC4CC4(F)F)c3)n2n1 (stereo not shown) :: 0.85
CCC(c1ccc(C(F)(F)F)nc1)n1cc(-c2cc(-c3ccc(C4CC4)nc3)n3nc(N)nc3c2)cn1 (single isomer, unassigned) [II-57] :: 1.26

Hi, could you look up log10(IC50) for each item in my list?
1. CCC(c1ccc(C(F)(F)F)nc1)n1cc(-c2cc(-c3cc(CO)ccc3Cl)c3nc(N)nn3c2)cn1 (single isomer, unassigned) [II-3]
2. Nc1nc2cc(-c3cnn(C(c4ccc(C(F)(F)F)nc4)C4CCOCC4)c3)cc(-c3ccc(=O)n(C(F)F)c3)n2n1 (single isomer, unassigned) [II-183]
3. CC(C)C(c1ccc(C(F)F)nc1)n1cc(-c2cc(-c3ccc(OC(F)F)nc3)n3nc(N)nc3c2)cn1 (single isomer, unassigned) [II-51]
4. CS(=O)(=O)c1cccc(-c2cc(-c3cnn(C(c4ccc(C(F)(F)F)nc4)C4CCOCC4)c3)cn3nc(N)nc23)c1 (single isomer, unassigned) [II-14]
5. CCC(c1ccc(C(F)(F)F)nc1)n1cc(-c2cc(-c3cnn(CC(F)F)c3)c3nc(N)nn3c2)cn1 (single isomer, unassigned) [II-109]
6. CC[C@@H](c1ccccc1)n1cc(-c2cc(-c3cnn(CC(F)(F)F)c3)n3nc(N)nc3c2)cn1
7. CCS(=O)(=O)c1cccc(-c2cc(-c3cnn(C(c4ccc(C(F)(F)F)nc4)C4CCOCC4)c3)cn3nc(N)nc23)c1 (racemic) [II-16]
8. Nc1nc2cc(-c3cnn(Cc4ccccc4)c3)cc(-c3cnc(C4CC4)nc3)n2n1

Result:
[1.08, 1.34, 1.11, -0.22, 1.20, 0.92, 0.04, 1.74]
